Measured values drawn from patent US20120010075A1 for this set.

# inhibition of growth at 0.05 µg/mL annotations
Tested on: Leptosphaeria nodorum (LEPTNO)
protocol.text: In vitro fungitoxicity of hydrazones with and without copper towards Leptosphaeria nodorum (Example 26)
Type: cell-based
test.parameters: Parastagonospora nodorum, 72 h, copper-minus medium; test compound Concn. 0.05 μg/mL; 72 h at 25° C.; read-out: LEPTNO % Inhn. Minus Copper Observed

smiles.notation: O=C(N/N=C/c1cc(C(F)(F)F)ccc1O)c1ccc([N+](=O)[O-])cc1
unit.descriptor: %
inhibition of growth at 0.05 µg/mL: 0
--
smiles.notation: O=C(N/N=C/c1cccc(C(F)(F)F)c1O)c1cccc(F)c1
unit.descriptor: %
inhibition of growth at 0.05 µg/mL: 18.8
--
smiles.notation: C/C(=N\NC(=O)c1cccc(Cl)c1)c1cc(Cl)ccc1O
unit.descriptor: %
inhibition of growth at 0.05 µg/mL: 0

###

Test system: Leptosphaeria nodorum (LEPTNO)
protocol.text: In vitro fungitoxicity of hydrazones with and without copper towards Leptosphaeria nodorum (Example 26)
Assay type: cell-based
test.parameters: Parastagonospora nodorum, 72 h, compound 0.05 μg/mL, copper-minus medium, 72 h at 25° C.; read-out: LEPTNO % Inhn. Minus Copper Observed

compound: C/C(=N\NC(=O)c1cccc(C)c1)c1cccc([N+](=O)[O-])c1O [Example 270]
inhibition of growth at 0.05 µg/mL [%]: 6.9
//
compound: COc1cccc(C(=O)N/N=C/c2cc(Cl)cc(Cl)c2O)c1 [Example 82]
inhibition of growth at 0.05 µg/mL [%]: 8.4
//
compound: O=C(N/N=C/c1cc(Br)ccc1O)c1ccccc1 [Example 148]
inhibition of growth at 0.05 µg/mL [%]: 15.4
//
compound: COc1cc(Br)cc(/C=N/NC(=O)c2cccc(Br)c2)c1O [Example 204]
inhibition of growth at 0.05 µg/mL [%]: 7.3
//
compound: Cc1ccc(C(=O)N/N=C/c2cc([N+](=O)[O-])cc(Br)c2O)cc1 [Example 202]
inhibition of growth at 0.05 µg/mL [%]: 2
//
compound: O=C(N/N=C/c1cc([N+](=O)[O-])ccc1O)c1ccc(Cl)cc1 [Example 197]
inhibition of growth at 0.05 µg/mL [%]: 0
//
compound: O=C(N/N=C/c1c(O)ccc2ccccc12)c1ccccc1 [Example 4]
inhibition of growth at 0.05 µg/mL [%]: 4.4
//
compound: O=C(N/N=C/c1cc(Cl)cc(Cl)c1O)c1ccccc1O [Example 69]
inhibition of growth at 0.05 µg/mL [%]: 19.3
//
compound: O=C(N/N=C/c1cc(Cl)ccc1O)c1cc(Cl)ccc1Cl [Example 189]
inhibition of growth at 0.05 µg/mL [%]: 19.2
//
compound: COc1ccc(O)c(/C(C)=N/NC(=O)c2cccc(C)c2)c1 [Example 263]
inhibition of growth at 0.05 µg/mL [%]: 4.1
//
compound: Cc1ccc(C(=O)N/N=C/c2cc(Cl)cc(Cl)c2O)c(Br)c1 [Example 228]
inhibition of growth at 0.05 µg/mL [%]: 2.6
//
compound: O=C(N/N=C/c1cc(Br)cc(Br)c1O)c1cc(I)ccc1Cl [Example 226]
inhibition of growth at 0.05 µg/mL [%]: 0
//
compound: O=C(N/N=C/c1c(O)cccc1F)c1ccccc1 [Example 245]
inhibition of growth at 0.05 µg/mL [%]: 0
//
compound: C/C(=N\NC(=O)c1ccc(C)cc1)c1cc(Cl)cc(Cl)c1O [Example 279]
inhibition of growth at 0.05 µg/mL [%]: 5.1
//
compound: CCOc1ccc(C(=O)N/N=C(\C)c2ccccc2O)cc1 [Example 18]
inhibition of growth at 0.05 µg/mL [%]: 0
//
compound: COc1ccc(/C(C)=N/NC(=O)c2cccc(Cl)c2)c(O)c1 [Example 285]
inhibition of growth at 0.05 µg/mL [%]: 3.4
//
compound: O=C(N/N=C/c1cc(Cl)ccc1O)c1ccccc1Br [Example 190]
inhibition of growth at 0.05 µg/mL [%]: 5.6
//
compound: COc1ccc(O)c(/C=N/NC(=O)c2ccc(Cl)cc2)c1 [Example 207]
inhibition of growth at 0.05 µg/mL [%]: 0
//
compound: O=C(N/N=C/c1ccccc1O)c1cccc(Br)c1 [Example 182]
inhibition of growth at 0.05 µg/mL [%]: 0
//
compound: Cc1ccc(C(=O)N/N=C(\CCc2ccccc2)c2ccccc2O)c(C)c1 [Example 31]
inhibition of growth at 0.05 µg/mL [%]: 2.2

###

Tested on: Leptosphaeria nodorum (LEPTNO)
protocol.text: In vitro fungitoxicity of hydrazones with and without copper towards Leptosphaeria nodorum (Example 26)
Format: cell-based
test.parameters: Parastagonospora nodorum, 72 h, compound 0.05 μg/mL, copper-minus medium, 72 h at 25° C.; read-out: LEPTNO % Inhn. Minus Copper Observed
Note to self: values exactly at 4% are yes. So inhibition of growth at 0.05 µg/mL at or above 4% is yes, below is no.

smiles.notation: C/C(=N\NC(=O)c1ccc(Cl)cc1)c1cc(Br)ccc1O
cat: yes

smiles.notation: Cc1ccc(C(=O)N/N=C/c2cc(Br)ccc2O)cc1
cat: yes

smiles.notation: Cc1ccccc1C(=O)N/N=C/c1cc(Cl)ccc1O
cat: yes

smiles.notation: C/C(=N\NC(=O)c1ccc(C)cc1)c1ccc(Cl)cc1O
cat: yes

smiles.notation: C/C(=N\NC(=O)c1ccccc1Cl)c1ccc(Cl)cc1O
cat: no

smiles.notation: O=C(N/N=C/c1cc(Cl)cc(Cl)c1O)c1ccc(OC(F)(F)F)cc1
cat: yes

smiles.notation: CCOc1cccc(C(=O)N/N=C/c2cc(Cl)cc(Cl)c2O)c1
cat: no

smiles.notation: CC/C(=N\NC(=O)c1ccccc1Cl)c1ccccc1O
cat: no

smiles.notation: COc1cccc(/C=N/NC(=O)c2ccccc2)c1O
cat: no

smiles.notation: O=C(N/N=C/c1cc(Cl)ccc1O)c1ccc(Br)cc1
cat: yes

smiles.notation: O=C(N/N=C/c1cc(Br)ccc1O)c1cccc(Cl)c1
cat: yes

smiles.notation: O=C(N/N=C/c1cc(Cl)cc(Cl)c1O)c1cc(Cl)ccc1Br
cat: yes

smiles.notation: C/C(=N\NC(=O)c1ccccc1C)c1cc(Br)ccc1O
cat: no

smiles.notation: Cc1cc(C)cc(C(=O)N/N=C/c2cc(Cl)cc(Cl)c2O)c1
cat: no

smiles.notation: O=C(N/N=C/c1cc(Cl)cc(Cl)c1O)c1ccc2ccccc2c1
cat: no

smiles.notation: COc1ccc(/C(C)=N/NC(=O)c2ccccc2C)c(O)c1
cat: no

smiles.notation: O=C(N/N=C/c1cc(Cl)ccc1O)c1cccc([N+](=O)[O-])c1
cat: yes

smiles.notation: COc1cccc(C(=O)N/N=C/c2cc(Cl)ccc2O)c1
cat: yes

smiles.notation: C/C(=N\NC(=O)c1ccc(C)cc1)c1ccccc1O
cat: yes

smiles.notation: C/C(=N\NC(=O)c1cccc(C)c1)c1ccc(Cl)cc1O
cat: yes

smiles.notation: C/C(=N\NC(=O)c1ccccc1Br)c1cc(Cl)cc(Cl)c1O
cat: no

smiles.notation: COc1cc(Br)cc(/C=N/NC(=O)c2ccccc2)c1O
cat: yes

smiles.notation: CCOc1ccc(C(=O)N/N=C/c2cc(Cl)cc(Cl)c2O)cc1
cat: yes

smiles.notation: O=C(N/N=C/c1cc(Cl)cc(Cl)c1O)c1cc(Cl)cc(Cl)c1
cat: yes

smiles.notation: Cc1cc(C)cc(C(=O)N/N=C/c2cc(Cl)ccc2O)c1
cat: yes

smiles.notation: C/C(=N\NC(=O)Cc1ccccc1)c1cc(Cl)cc(Cl)c1O
cat: yes

smiles.notation: O=C(N/N=C/c1cc(Br)ccc1O)c1ccc2c(c1)OCO2
cat: no

smiles.notation: O=C(N/N=C/c1cc(C(F)(F)F)cc(Cl)c1O)c1ccccc1
cat: no

smiles.notation: C/C(=N\NC(=O)c1ccccc1C)c1ccc(Cl)cc1O
cat: yes

smiles.notation: O=C(N/N=C/c1cc(Br)cc(Br)c1O)c1ccc(OC(F)(F)F)cc1
cat: yes

smiles.notation: Cc1cccc(C(=O)N/N=C/c2cc(Cl)cc(Br)c2O)c1O
cat: yes

smiles.notation: O=C(N/N=C/c1cc(C(F)(F)F)cc(C(F)(F)F)c1O)c1ccccc1
cat: yes

smiles.notation: C/C(=N\NC(=O)c1cccc(Cl)c1)c1ccccc1O
cat: no

smiles.notation: O=C(Cc1ccccc1)N/N=C/c1cc(Br)cc(Br)c1O
cat: no

smiles.notation: O=C(N/N=C/c1cc(Cl)cc(Br)c1O)c1ccccc1O
cat: yes

smiles.notation: C/C(=N\NC(=O)c1ccccc1Cl)c1ccccc1O
cat: no

smiles.notation: O=C(N/N=C(\CCc1ccccc1)c1ccccc1O)c1ccccc1Cl
cat: yes

smiles.notation: Cc1ccc(C(=O)N/N=C/c2cc(Cl)ccc2O)cc1
cat: yes

###

Test system: Phytophthora infestans
Assay type: in vivo, Phytophthora infestans on tomato
test.parameters: hydrazone 50 ppm + 50 μM CuCl2.2H2O, applied 24 h before inoculation, assessed 7 days after inoculation, tomato

smiles.notation: C/C(=N\NC(=O)c1ccc(C(C)C)cc1)c1ccccc1O
assay.system: Phytophthora infestans
TLB % Control, %: 64.9
//
smiles.notation: O=C(N/N=C/c1cc(Br)cc(Br)c1O)c1ccc(OC(F)(F)F)cc1
assay.system: Phytophthora infestans
TLB % Control, %: 89.1
//
smiles.notation: C/C(=N\NC(=O)c1ccc(F)cc1)c1cc(Cl)cc(Cl)c1O
assay.system: Phytophthora infestans
TLB % Control, %: 79.7
//
smiles.notation: C/C(=N\NC(=O)c1ccc(C(C)(C)C)cc1)c1ccccc1O
assay.system: Phytophthora infestans
TLB % Control, %: 43.9
//
smiles.notation: C/C(=N\NC(=O)c1ccccc1Cl)c1ccccc1O
assay.system: Phytophthora infestans
TLB % Control, %: 14.0
//
smiles.notation: O=C(Cc1ccccc1)N/N=C/c1cc(Cl)cc(Cl)c1O
assay.system: Phytophthora infestans
TLB % Control, %: 87.0
//
smiles.notation: C/C(=N\NC(=O)Cc1ccccc1)c1ccccc1O
assay.system: Phytophthora infestans
TLB % Control, %: 38.0
//
smiles.notation: O=C(Cc1ccc(Cl)cc1)N/N=C/c1cc(Cl)cc(Cl)c1O
assay.system: Phytophthora infestans
TLB % Control, %: 71.0
//
smiles.notation: CCOc1ccc(C(=O)N/N=C/c2cc(Br)cc(Br)c2O)cc1
assay.system: Phytophthora infestans
TLB % Control, %: 70.2
